test: total protein half-life in vivo (active degradation + dilution); higher = more stable protein; details: E. coli NCM3722 delta-smpB; growth: N-lim chemostat; doubling time 6 h
Each record here notes measured total protein half-life in vivo.
reported_property: total protein half-life in vivo (h)

INSERT INTO measurements (sequence_input, unit_of_measure, experimental_value) VALUES
  ('MSETASWQPSASIPNLLKRAAIMAEIRRFFADRGVLEVETPCMSQATVTDIHLVPFETRFVGPGHSQGMNLWLMTSPEYHMKRLLVAGCGPVFQLCRSFRNEEMGRYHNPEFTMLEWYRPHYDMYRLMNEVDDLLQQVLDCPAAESLSYQQAFLRYLEIDPLSADKTQLREVAAKLDLSNVADTEEDRDTLLQLLFTFGVEPNIGKEKPTFVYHFPASQASLAQISTEDHRVAERFEVYYKGIELANGFHELTDAREQQQRFEQDNRKRAARGLPQHPIDQNLIEALKVGMPDCSGVALGVDRLVMLALGAETLAEVIAFSVDRA [P0A8N7]', 'h', 3.93),
  ('MKKIPLGTTDITLSRMGLGTWAIGGGPAWNGDLDRQICIDTILEAHRCGINLIDTAPGYNFGNSEVIVGQALKKLPREQVVVETKCGIVWERKGSLFNKVGDRQLYKNLSPESIREEVAASLQRLGIDYIDIYMTHWQSVPPFFTPIAETVAVLNELKSEGKIRAIGAANVDADHIREYLQYGELDIIQAKYSILDRAMENELLPLCRDNGIVVQVYSPLEQGLLTGTITRDYVPGGARANKVWFQRENMLKVIDMLEQWQPLCARYQCTIPTLALAWILKQSDLISILSGATAPEQVRENVAALNINLSDADATLMREMAEALER', 'h', 4.19),
  ('MWSEYSLEVVDAVARNGSFSAAAQELHRVPSAVSYTVRQLEEWLAVPLFERRHRDVELTAAGAWFLKEGRSVVKKMQITRQQCQQIANGWRGQLAIAVDNIVRPERTRQMIVDFYRHFDDVELLVFQEVFNGVWDALSDGRVELAIGATRAIPVGGRYAFRDMGMLSWSCVVASHHPLALMDGPFSDDTLRNWPSLVREDTSRTLPKRITWLLDNQKRVVVPDWESSATCISAGLCIGMVPTHFAKPWLNEGKWVALELENPFPDSACCLTWQQNDMSPALTWLLEYLGDSETLNKEWLREPEETPATGD [P0ACR2]', 'h', 4.6),
  ('MKRASLLTLTLIGAFSAIQAAWAVDYPLPPTGSRLVGQNQTYTVQEGDKNLQAIARRFDTAAMLILEANNTIAPVPKPGTTITIPSQLLLPDAPRQGIIVNLAELRLYYYPPGENIVQVYPIGIGLQGLETPVMETRVGQKIPNPTWTPTAGIRQRSLERGIKLPPVVPAGPNNPLGRYALRLAHGNGEYLIHGTSAPDSVGLRVSSGCIRMNAPDIKALFSSVRTGTPVKVINEPVKYSVEPNGMRYVEVHRPLSAEEQQNVQTMPYTLPAGFTQFKDNKAVDQKLVDKALYRRAGYPVSVSSGATPAASNAPSVESAQNGEPEQGNMLRVTQ', 'h', 5.31),
  ('MAEVTQLKRYDARPINWGKWFLIGIGMLVSAFILLVPMIYIFVQAFSKGLMPVLQNLADPDMLHAIWLTVMIALIAVPVNLVFGILLAWLVTRFNFPGRQLLLTLLDIPFAVSPVVAGLVYLLFYGSNGPLGGWLDEHNLQIMFSWPGMVLVTIFVTCPFVVRELVPVMLSQGSQEDEAAILLGASGWQMFRRVTLPNIRWALLYGVVLTNARAIGEFGAVSVVSGSIRGETLSLPLQIELLEQDYNTVGSFTAAALLTLMAIITLFLKSMLQWRLENQEKRAQQEEHHEH [P0AEB0]', 'h', 4.22);

Reference source: the supplement of paper PMC11246515
